B1: FAM189A2 (parent)
chain: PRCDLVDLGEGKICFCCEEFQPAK

variants of: B1; test: protein stability index of a GFP-peptide fusion (GPS, HEK-293T) (PSI 1-6); higher = more stable; settings: c terminus: a fixed tail appended;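 also: lentivirally expressed fusions sorted by FACS into six bins by GFP to DsRed ratio, PSI derived from sequencing read proportions per bin multiplied by bin number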
Please provide measured protein stability index for the entries that follow.
Simply state the number, no unit and no words.

Task: Which protein stability index value belongs to PRCDLVDLGEGKICFCREEFQPAK [C17R] ?
Output: 3.28

Task: Which protein stability index value belongs to PRCDLVDLGCGKICFCCEEFQPAK [E10C] ?
Output: 2.63

Task: Which protein stability index value belongs to PRCDLVDLGEGKICFCWEEFQPAK [C17W] ?
Output: 2.51

Task: Which protein stability index value belongs to DRCDLVDLGEGKICFCCEEFQPAK [P1D] ?
Output: 2.67

Task: Which protein stability index value belongs to PRCDLVDLGEGKICFCCEEFQPTK [A23T] ?
Output: 2.79

Task: Which protein stability index value belongs to PRCDLVDLGEGKICFCCEECQPAK [F20C] ?
Output: 3.15

Task: Which protein stability index value belongs to PRCDLVDLGEGKIRFCCEEFQPAK [C14R] ?
Output: 3.51

Task: Which protein stability index value belongs to PRCDLVDLGEMKICFCCEEFQPAK [G11M] ?
Output: 2.21

Task: Which protein stability index value belongs to QRCDLVDLGEGKICFCCEEFQPAK [P1Q] ?
Output: 2.9

Task: Which protein stability index value belongs to PRCDLVDLGEGKICFRCEEFQPAK [C16R] ?
Output: 3.13

Task: Which protein stability index value belongs to PRCDLVDTGEGKICFCCEEFQPAK [L8T] ?
Output: 3.92

Task: Which protein stability index value belongs to PRCDLVYLGEGKICFCCEEFQPAK [D7Y] ?
Output: 2.12

Task: Which protein stability index value belongs to PRCSLVDLGEGKICFCCEEFQPAK [D4S] ?
Output: 2.7

Task: Which protein stability index value belongs to PRCDLVDLGEGYICFCCEEFQPAK [K12Y] ?
Output: 2.42

Task: Which protein stability index value belongs to PRCDAVDLGEGKICFCCEEFQPAK [L5A] ?
Output: 3.98

Task: Which protein stability index value belongs to PRCDLVDLGEGKICFCCEEFIPAK [Q21I] ?
Output: 2.68

Task: Which protein stability index value belongs to PRCDWVDLGEGKICFCCEEFQPAK [L5W] ?
Output: 2.16

Task: Which protein stability index value belongs to PRCDLKDLGEGKICFCCEEFQPAK [V6K] ?
Output: 3.78

Task: Which protein stability index value belongs to PRCDLVDLGEGKICFCCEEFQPAD [K24D] ?
Output: 3.18

Task: Which protein stability index value belongs to PMCDLVDLGEGKICFCCEEFQPAK [R2M] ?
Output: 2.41

Task: Which protein stability index value belongs to PRCDLVDLGEFKICFCCEEFQPAK [G11F] ?
Output: 1.51

Task: Which protein stability index value belongs to PRCDLVDLGEGKICFCCVEFQPAK [E18V] ?
Output: 2.53
